These measurements were taken from patent US5362747A.

Target: Type II (macrophage) NOS (Mus musculus, UniProt P29477)
Construct: cytosolic preparations of NO synthase (type II isoform) were prepared from RAW 264.7 cells; endogenous in cells; host or cells: RAW 264.7 cells, induced 16 hours with lipopolysaccharide; cytosolic preparation
Sequence (P29477 whole entry, canonical isoform): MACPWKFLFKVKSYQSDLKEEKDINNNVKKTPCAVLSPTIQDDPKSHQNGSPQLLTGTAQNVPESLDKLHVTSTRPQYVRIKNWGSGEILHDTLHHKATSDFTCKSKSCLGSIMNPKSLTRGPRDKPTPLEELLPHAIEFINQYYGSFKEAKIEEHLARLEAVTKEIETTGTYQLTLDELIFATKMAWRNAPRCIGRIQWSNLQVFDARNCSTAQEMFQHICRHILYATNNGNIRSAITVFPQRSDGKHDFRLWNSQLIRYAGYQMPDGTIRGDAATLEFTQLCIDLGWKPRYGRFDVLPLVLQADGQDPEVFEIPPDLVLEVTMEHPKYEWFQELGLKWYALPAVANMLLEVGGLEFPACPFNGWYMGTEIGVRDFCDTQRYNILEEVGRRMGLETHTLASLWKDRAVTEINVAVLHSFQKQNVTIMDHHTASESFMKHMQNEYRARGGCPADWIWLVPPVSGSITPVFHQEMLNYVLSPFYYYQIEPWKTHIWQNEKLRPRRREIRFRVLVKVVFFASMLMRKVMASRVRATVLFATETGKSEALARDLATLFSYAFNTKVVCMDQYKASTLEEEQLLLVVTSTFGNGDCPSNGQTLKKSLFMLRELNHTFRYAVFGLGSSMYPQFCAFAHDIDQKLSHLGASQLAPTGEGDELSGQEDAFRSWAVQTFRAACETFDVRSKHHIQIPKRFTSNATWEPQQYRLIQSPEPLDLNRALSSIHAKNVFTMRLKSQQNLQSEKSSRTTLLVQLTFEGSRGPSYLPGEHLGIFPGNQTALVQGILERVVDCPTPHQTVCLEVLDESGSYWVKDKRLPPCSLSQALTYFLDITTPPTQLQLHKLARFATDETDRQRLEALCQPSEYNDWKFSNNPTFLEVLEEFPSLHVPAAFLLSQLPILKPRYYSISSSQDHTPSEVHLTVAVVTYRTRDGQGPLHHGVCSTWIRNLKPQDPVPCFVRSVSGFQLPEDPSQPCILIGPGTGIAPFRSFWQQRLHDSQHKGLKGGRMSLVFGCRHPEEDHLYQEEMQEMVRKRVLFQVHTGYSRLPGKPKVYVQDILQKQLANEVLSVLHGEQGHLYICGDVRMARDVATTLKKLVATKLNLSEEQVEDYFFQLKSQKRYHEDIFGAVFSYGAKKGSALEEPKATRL
Assay: [3H]-arginine to [3H]-citrulline conversion, Type II (macrophage) NOS
Format: biochemical, murine
Conditions: 100 μM; cytosolic NOS from LPS-induced RAW 264.7 cells, 25° C.; read-out: Type II % inhib. @ 100 μM
inhibition at 100 µM overview
Measured quantity: inhibition at 100 µM (%)

[[record]]
compound = "N#Cc1ccccc1NCCC[C@H](N)C(=O)O"
measured_quantity = "inhibition at 100 µM"
data_value = 50

[[record]]
compound = "Cc1ccc([N+](=O)[O-])c(NCCC[C@H](N)C(=O)O)c1"
measured_quantity = "inhibition at 100 µM"
data_value = 88

[[record]]
compound = "COc1ccc([N+](=O)[O-])c(NCCC[C@H](N)C(=O)O)c1"
measured_quantity = "inhibition at 100 µM"
data_value = 46

[[record]]
compound = "N=C(NCCC[C@H](N)C(=O)O)N[N+](=O)[O-] [NNLA, NNitro-L-arginine, reference compound]"
measured_quantity = "inhibition at 100 µM"
data_value = 94

[[record]]
compound = "N[C@@H](CCCNc1c(Cl)cccc1[N+](=O)[O-])C(=O)O"
measured_quantity = "inhibition at 100 µM"
data_value = 11

[[record]]
compound = "Cc1ccc([N+](=O)[O-])c(SCCC[C@H](N)C(=O)O)c1"
measured_quantity = "inhibition at 100 µM"
data_value = 95

[[record]]
compound = "Cc1ccc([N+](=O)[O-])c(NCCC[C@@H](N)C(=O)O)c1"
measured_quantity = "inhibition at 100 µM"
data_value = 45

[[record]]
compound = "Cc1ccc([N+](=O)[O-])c(NCCCC(N)CO)c1 (centres unmarked)"
measured_quantity = "inhibition at 100 µM"
data_value = 99


====

inhibition at 100 µM overview
Target: Type I (rat brain) NOS (Rattus norvegicus)
Construct: isolated from rat brain cerebellum cells partially purified on a phosphocellulose column; from tissue; host or cells: rat brain cerebellum, partially purified on phosphocellulose
Sequence (P29476 whole entry): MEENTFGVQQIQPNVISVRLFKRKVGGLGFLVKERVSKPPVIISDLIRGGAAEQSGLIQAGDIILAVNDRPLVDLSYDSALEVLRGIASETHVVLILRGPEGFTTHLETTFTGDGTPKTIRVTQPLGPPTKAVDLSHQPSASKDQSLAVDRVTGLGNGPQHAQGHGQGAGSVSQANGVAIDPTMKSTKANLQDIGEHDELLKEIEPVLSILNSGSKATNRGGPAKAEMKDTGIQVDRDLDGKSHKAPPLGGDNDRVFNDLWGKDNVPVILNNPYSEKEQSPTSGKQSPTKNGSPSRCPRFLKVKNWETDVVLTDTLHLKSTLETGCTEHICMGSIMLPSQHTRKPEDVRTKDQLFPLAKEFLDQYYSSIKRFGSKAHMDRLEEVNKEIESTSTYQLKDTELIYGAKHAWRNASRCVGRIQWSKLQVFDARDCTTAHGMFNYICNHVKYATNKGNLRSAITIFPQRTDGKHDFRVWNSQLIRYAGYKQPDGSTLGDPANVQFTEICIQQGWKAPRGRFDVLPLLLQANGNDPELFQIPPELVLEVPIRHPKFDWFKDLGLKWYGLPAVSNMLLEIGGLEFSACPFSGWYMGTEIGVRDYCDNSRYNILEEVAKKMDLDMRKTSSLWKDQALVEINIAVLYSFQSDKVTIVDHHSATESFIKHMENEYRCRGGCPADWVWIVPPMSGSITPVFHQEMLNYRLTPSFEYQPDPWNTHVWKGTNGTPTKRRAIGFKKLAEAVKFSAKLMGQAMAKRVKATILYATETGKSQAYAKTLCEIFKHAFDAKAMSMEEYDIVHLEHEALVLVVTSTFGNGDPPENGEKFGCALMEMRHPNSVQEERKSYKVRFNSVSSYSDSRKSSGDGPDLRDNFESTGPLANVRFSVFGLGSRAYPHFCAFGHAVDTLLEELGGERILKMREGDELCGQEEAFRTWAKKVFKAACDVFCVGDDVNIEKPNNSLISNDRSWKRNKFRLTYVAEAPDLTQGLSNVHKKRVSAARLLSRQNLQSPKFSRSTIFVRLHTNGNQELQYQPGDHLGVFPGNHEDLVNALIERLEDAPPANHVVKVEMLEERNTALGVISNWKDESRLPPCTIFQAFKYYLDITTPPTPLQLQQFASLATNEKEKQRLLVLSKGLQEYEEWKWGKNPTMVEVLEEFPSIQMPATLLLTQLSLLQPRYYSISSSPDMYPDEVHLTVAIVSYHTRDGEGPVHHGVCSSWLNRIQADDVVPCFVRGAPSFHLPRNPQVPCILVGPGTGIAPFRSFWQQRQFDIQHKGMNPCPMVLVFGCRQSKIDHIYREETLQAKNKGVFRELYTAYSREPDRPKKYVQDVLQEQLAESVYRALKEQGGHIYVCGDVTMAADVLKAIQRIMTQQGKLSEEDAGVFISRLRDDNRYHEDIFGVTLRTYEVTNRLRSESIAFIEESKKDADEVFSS
Test: [3H]-arginine to [3H]-citrulline conversion, Type I (rat brain) NOS
Type: biochemical
Settings: 100 μM; rat brain cerebellum NOS, 25° C.; read-out: Type I % inhib. @ 100 μM
Measured quantity: inhibition at 100 µM (%)

[[record]]
compound = "Cc1ccc([N+](=O)[O-])c(NCCCC[C@H](N)C(=O)O)c1 [Example 7]"
units_text = "%"
data_value = 91

[[record]]
compound = "Cc1ccc([N+](=O)[O-])c(NC/C=C/[C@H](N)CO)c1 [Example 3]"
units_text = "%"
data_value = 99

[[record]]
compound = "Cc1ccc([N+](=O)[O-])c(NCCC[C@H](N)C(=O)O)c1 [Example 2]"
units_text = "%"
data_value = 88

[[record]]
compound = "N=C(NCCC[C@H](N)C(=O)O)N[N+](=O)[O-] [NNLA, NNitro-L-arginine, reference compound]"
units_text = "%"
data_value = 95

[[record]]
compound = "Cc1ccc([N+](=O)[O-])c(NCCC[C@@H](N)C(=O)O)c1 [Example 10]"
units_text = "%"
data_value = 58

[[record]]
compound = "Cc1ccc([N+](=O)[O-])c(NCCCC(N)CO)c1 (stereo not shown) [Example 4]"
units_text = "%"
data_value = 94

[[record]]
compound = "COc1ccc([N+](=O)[O-])c(NCCC[C@H](N)C(=O)O)c1 [Example 5]"
units_text = "%"
data_value = 68

[[record]]
compound = "N#Cc1ccccc1NCCC[C@H](N)C(=O)O [Example 11]"
units_text = "%"
data_value = 6

[[record]]
compound = "N[C@@H](CCCNc1c(Cl)cccc1[N+](=O)[O-])C(=O)O [Example 6]"
units_text = "%"
data_value = 55

[[record]]
compound = "Cc1ccc([N+](=O)[O-])c(SCCC[C@H](N)C(=O)O)c1 [Example 8]"
units_text = "%"
data_value = 97

